# maps each entry to its Activity
target: Adenosine receptor A2a (Rattus norvegicus) (UniProt P30543); assay: Displacement of [3H]ZM-241385 from adenosine A2A receptor in rat striatal membrane at 10 uM relative to control; assay type: cell membranes; conditions: Striatum
Sequence (P30543 whole entry): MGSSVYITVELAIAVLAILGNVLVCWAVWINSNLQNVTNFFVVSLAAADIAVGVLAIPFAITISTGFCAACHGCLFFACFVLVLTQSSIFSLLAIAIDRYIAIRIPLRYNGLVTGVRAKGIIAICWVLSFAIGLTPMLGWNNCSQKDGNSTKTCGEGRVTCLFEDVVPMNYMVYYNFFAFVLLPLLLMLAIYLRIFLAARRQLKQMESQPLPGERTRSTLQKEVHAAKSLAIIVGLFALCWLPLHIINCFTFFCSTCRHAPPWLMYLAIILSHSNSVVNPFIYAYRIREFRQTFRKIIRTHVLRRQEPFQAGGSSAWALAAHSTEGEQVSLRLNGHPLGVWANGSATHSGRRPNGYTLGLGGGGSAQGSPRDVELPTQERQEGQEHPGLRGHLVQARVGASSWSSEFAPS
Just the number please, in %, no unit attached.

compound	units	recorded_measurement
CCCN1C(=O)N2C[C@@H](C)N=C2c2[nH]c(C34CCC(O)(CC3)CC4)nc21	%	32
CCCN1C(=O)N2C[C@@H](CC(C)C)N=C2c2[nH]c(C34CCC(O)(CC3)CC4)nc21	%	97
CCCN1C(=O)N2C[C@H](CC)N=C2c2[nH]c(C34CCC(O)(CC3)CC4)nc21	%	70

Any idea what Activity was measured for CCCN1C(=O)N2C[C@@H](CC)N=C2c2[nH]c(C34CCC(C(=O)O)(CC3)CC4)nc21 ?
48

Any idea what Activity was measured for CCCN1C(=O)N2C[C@H](C(C)CC)N=C2c2[nH]c(C34CCC(O)(CC3)CC4)nc21 (some centres not stated) ?
91

Any idea what Activity was measured for CCCN1C(=O)N2C[C@@H](Cc3ccccc3)N=C2c2[nH]c(C34CCC(O)(CC3)CC4)nc21 ?
84

Any idea what Activity was measured for CCCN1C(=O)N2C[C@@H](CC)N=C2c2[nH]c(C34CCC(CCC(=O)O)(CC3)CC4)nc21 ?
83

----------
Endpoint: pKi. System: Adenosine receptor A2a (Homo sapiens, UniProt P29274). Items follow.
Sequence (P29274 whole entry): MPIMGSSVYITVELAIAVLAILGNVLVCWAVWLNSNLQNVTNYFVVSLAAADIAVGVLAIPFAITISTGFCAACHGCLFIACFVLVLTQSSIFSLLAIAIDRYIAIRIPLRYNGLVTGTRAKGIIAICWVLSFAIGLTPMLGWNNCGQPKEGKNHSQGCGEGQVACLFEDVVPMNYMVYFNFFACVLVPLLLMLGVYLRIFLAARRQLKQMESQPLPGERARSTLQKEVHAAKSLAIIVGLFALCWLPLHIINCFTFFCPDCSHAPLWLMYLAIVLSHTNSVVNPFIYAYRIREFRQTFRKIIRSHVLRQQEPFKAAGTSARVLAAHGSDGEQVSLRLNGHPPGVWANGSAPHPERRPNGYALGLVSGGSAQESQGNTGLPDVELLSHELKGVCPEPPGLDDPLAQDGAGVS
Units for pKi: none; it is -log10 of a concentration expressed in mol/L.

CCCn1c(=O)c2[nH]c(C34CCC(O)(CC3)CC4)nc2n(CCC)c1=O 6.26

Given the entry CCCN1C(=O)N2C[C@@H](C(C)C)N=C2c2[nH]c(C34CCC(CCC(=O)O)(CC3)CC4)nc21 , what pKi was observed with Adenosine receptor A2a (Homo sapiens, UniProt P29274)?
4.74

----------
# maps each entry to its half-life
assay: Half life in rat 1 mg/kg, po; format: ADME, organism-based; set-up: dose 1 mg/kg, route oral; details: in vivo
Just the number please, in h, no unit attached.

Any idea what half-life was measured for CCCN1C(=O)N2C[C@@H](C(C)C)N=C2c2[nH]c(C34CCC(CCC(=O)O)(CC3)CC4)nc21.Cl ?
3.1

Any idea what half-life was measured for CCCN1C(=O)N2C[C@@H](C(C)C)N=C2c2[nH]c(C34CCC(O)(CC3)CC4)nc21.Cl ?
2.9

Any idea what half-life was measured for CCCN1C(=O)N2C[C@@H](CC)N=C2c2[nH]c(C34CCC(O)(CC3)CC4)nc21.Cl ?
3.8

Any idea what half-life was measured for CCCn1c(=O)c2nc(C34CCC(CCC(=O)O)(CC3)CC4)[nH]c2n(CCC)c1=O.Cl ?
3.1

Values compiled from ChEMBL document CHEMBL1137356.
